Known Kd of a selection of compounds
Molecular target: BRD4 domain 1 (Homo sapiens, UniProt O60885)
Experiment: Kd determination of inhibitors binding to BRD4 domain 1 (Epic label-free platform)
Details: direct binding to immobilized BRD4 domain 1; tripling dilution series from 20µM; about 1hr equilibrium; rounded to whole number; read-out: Epic Kd BRD41

compound	relational.operator	Kd, nM
Cc1noc(C)c1-c1cc(S(=O)(=O)NC2CCC2)c2cccnc2c1 [Compound 10]	=	3190
Cc1noc(C)c1-c1cc(S(=O)(=O)NC2CCCC2)c2cc(NCCO)c(=O)[nH]c2c1 [Compound 57]	=	444
Cc1noc(C)c1-c1cc(S(=O)(=O)N[C@@H]2CCC[C@H]2N)c2cccnc2c1 (stereo in doubt) [Compound 46]	=	6420
Cc1noc(C)c1-c1cc(S(=O)(=O)NC2CCCC2)c2cc(NC3COC3)c(=O)[nH]c2c1 [Compound 96]	=	467
Cc1noc(C)c1-c1cc(S(=O)(=O)NC2(C(F)(F)F)CC2)c2cccnc2c1 [Compound 84]	=	2000
Cc1noc(C)c1-c1cc(S(=O)(=O)NC2CCCC2)c2cc(-n3ccnc3)c(=O)[nH]c2c1 [Compound 32]	=	717
Cc1noc(C)c1-c1cc(S(=O)(=O)NC2CCCC2)c2cc(N)c(=O)[nH]c2c1 [Compound 41]	=	400
Cc1noc(C)c1-c1cc(S(=O)(=O)N[C@@H]2CCC[C@H]2C(=O)NC2CCCC2)c2cccnc2c1 [Compound 35]	>	20000
Cc1noc(C)c1-c1cc(S(=O)(=O)N[C@@H]2CCC[C@@H]2O)c2cccnc2c1 [Compound 23]	=	19500
Cc1noc(C)c1-c1cc(S(=O)(=O)NC2CCCC2)c2cc(NCCN(C)C)c(=O)[nH]c2c1 [Compound 88]	=	1060
Cc1noc(C)c1-c1cc(S(=O)(=O)N[C@@H]2CCC[C@H]2C(=O)NCc2nccn2C)c2cccnc2c1 [Compound 42]	=	16200
Cc1noc(C)c1-c1cc(S(=O)(=O)NC2CCCC2)c2cc(NCC(C)(C)N)c(=O)[nH]c2c1 [Compound 99]	=	671
Cc1noc(C)c1-c1cc(S(=O)(=O)N[C@H]2C[C@@H](N)C2)c2cccnc2c1 [Compound 34]	=	5480
Cc1noc(C)c1-c1cc(S(=O)(=O)N[C@@H]2CCC[C@H]2C(=O)NCCN)c2cccnc2c1 [Compound 72]	=	1440
Cc1noc(C)c1-c1cc(S(=O)(=O)NC2CCCC2)c2cccnc2c1Cl [Compound 18]	=	9150
Cc1noc(C)c1-c1cc(S(=O)(=O)NC2CCCC2)c2cc(NC3CCN(C)CC3)c(=O)[nH]c2c1 [Compound 66]	=	520

----------
Target: BRD4 domain 2 (Homo sapiens)
Test: Kd determination of inhibitors binding to BRD4 domain 2 (Epic label-free platform)
Details: direct binding to immobilized BRD4 domain 2; tripling dilution series from 20µM; about 1hr equilibrium; rounded to whole number
reported.metric: log10 of Kd (log10 of the value in nM)

compound	log10 of Kd
Cc1noc(C)c1-c1cc(S(=O)(=O)NC2CCCC2)c2cc(NCCOCCO)c(=O)[nH]c2c1	2.67
Cc1noc(C)c1-c1cc(S(=O)(=O)NC2CCCC2)c2cc(NCC3CC3)c(=O)[nH]c2c1	2.70
Cc1noc(C)c1-c1cc(S(=O)(=O)NC2CCCC2)c2cc(Br)c(=O)[nH]c2c1	2.70
Cc1noc(C)c1-c1cc(S(=O)(=O)N[C@@H]2CCC[C@H]2C(=O)NCCN)c2cccnc2c1	3.37
COC[C@H]1CCC[C@H]1NS(=O)(=O)c1cc(-c2c(C)noc2C)cc2ncccc12	3.98
Cc1noc(C)c1-c1cc(S(=O)(=O)NC2CCC2)c2cccnc2c1	3.43
Cc1noc(C)c1-c1cc(S(=O)(=O)N[C@H]2CCC[C@H]2O)c2cccnc2c1	3.83
Cc1noc(C)c1-c1cc(S(=O)(=O)NC2CCCC2)c2cc(-c3cccnc3)c(=O)[nH]c2c1	2.38
Cc1noc(C)c1-c1cc(S(=O)(=O)NC2CCCC2)c2ccc(C3CC3)nc2c1	3.54
Cc1noc(C)c1-c1cc(S(=O)(=O)NC2CCCC2)c2cc(-c3ccccn3)c(=O)[nH]c2c1	2.86
Cc1noc(C)c1-c1cc(S(=O)(=O)NC2CCCC2)c2ccc(NCC3CC3)nc2c1	3.16
Cc1noc(C)c1-c1cc(S(=O)(=O)NC2CCCC2)c2nccnc2c1	3.39
Cc1noc(C)c1-c1cc(S(=O)(=O)NC2CCCC2)c2cc(NCC(O)CO)c(=O)[nH]c2c1 (stereo not drawn)	2.62
Cc1noc(C)c1-c1cc(S(=O)(=O)NCCN)c2cccnc2c1	4.24
Cc1noc(C)c1-c1cc(S(=O)(=O)NC2CCCC2)c2cc(N3CCCCC3)c(=O)[nH]c2c1	3.28
Cc1noc(C)c1-c1cc(S(=O)(=O)NC2CCCC2)c2cc(-c3ncccn3)c(=O)[nH]c2c1	2.88
Cc1noc(C)c1-c1cc(S(=O)(=O)NC2CCCC2)c2cc(N3CCN(C)CC3)c(=O)[nH]c2c1	2.74
Cc1noc(C)c1-c1cc(S(=O)(=O)NC2CCCC2)c2cc(NCc3cccnc3)c(=O)[nH]c2c1	2.61
Cc1noc(C)c1-c1cc(S(=O)(=O)NC2CCCC2)c2cc(NCCN(C)C)c(=O)[nH]c2c1	2.97

----------
Molecular target: BRD4 domain 1 (Homo sapiens)
Assay: Kd determination of inhibitors binding to BRD4 domain 1 (Epic label-free platform)
Settings: direct binding to immobilized BRD4 domain 1; tripling dilution series from 20µM; about 1hr equilibrium; rounded to whole number; read-out: Epic Kd BRD41
reported.metric: log10(Kd) (log10 of the value in µM)

compound	log10(Kd)
Cc1noc(C)c1-c1cc(S(=O)(=O)NC2CCCC2)c2cc(-c3cccnc3)c(=O)[nH]c2c1	-0.60
Cc1noc(C)c1-c1cc(S(=O)(=O)N[C@@H]2CCC[C@H]2C(=O)N2CCN(C)CC2)c2cccnc2c1	0.69
Cc1noc(C)c1-c1cc(S(=O)(=O)NC2CCCC2)c2ccc(N)nc2c1	-0.05
Cc1noc(C)c1-c1cc(S(=O)(=O)NC2CCCC2)c2cc(NCC(C)(C)O)c(=O)[nH]c2c1	0.01
Cc1noc(C)c1-c1cc(S(=O)(=O)N[C@H]2CC[C@@H](O)C2)c2cccnc2c1	1.22
Cc1noc(C)c1-c1cc(S(=O)(=O)NC2CC2(C)C)c2cccnc2c1 (stereo not shown)	1.22
Cc1noc(C)c1-c1cc(S(=O)(=O)NC2CCC(C)(C)C2)c2cccnc2c1 (stereo not shown)	0.75
Cc1noc(C)c1-c1cc(S(=O)(=O)NC2CCCC2)c2ccc(C(F)F)nc2c1	0.53

----------
pKd values by entry
Target: BRD4 domain 2 (Homo sapiens)
Test: Kd determination of inhibitors binding to BRD4 domain 2 (Epic label-free platform)
Conditions: direct binding to immobilized BRD4 domain 2; tripling dilution series from 20µM; about 1hr equilibrium; rounded to whole number
pKd: −log10 of the molar value.
reported.metric: pKd

compound	relational.operator	obs.value
Cc1noc(C)c1-c1cc(S(=O)(=O)N[C@@H]2C[C@H]2c2ccccc2)c2cccnc2c1	<	4.70
Cc1noc(C)c1-c1cc(S(=O)(=O)NC2CCCC2)c2cc(NC(C)(C)CO)c(=O)[nH]c2c1	=	6.18
Cc1noc(C)c1-c1cc(S(=O)(=O)NC2CCCC2)c2cc(-n3ccnc3)c(=O)[nH]c2c1	=	6.28
Cc1noc(C)c1-c1cc(S(=O)(=O)N[C@H]2CC[C@H](O)CC2)c2cccnc2c1	=	4.76
Cc1noc(C)c1-c1cc(S(=O)(=O)N[C@@H]2CCC[C@@H]2c2ccc(F)cc2)c2cccnc2c1	=	4.91
Cc1noc(C)c1-c1cc(S(=O)(=O)N[C@H]2C[C@@H]3CC[C@H]2C3)c2cccnc2c1	=	5.46
Cc1noc(C)c1-c1cc(S(=O)(=O)N[C@H](C)C(F)(F)F)c2cccnc2c1	=	4.94
Cc1noc(C)c1-c1cc(S(=O)(=O)NC2CCCC2)c2cc(NCCO)c(=O)[nH]c2c1	=	6.32
Cc1noc(C)c1-c1cc(S(=O)(=O)NC2CCCC2)c2cc(NCCN3CCCC3)c(=O)[nH]c2c1	=	6.18
Cc1noc(C)c1-c1cc(S(=O)(=O)NC2CCCC2)c2cc(-n3cccn3)c(=O)[nH]c2c1	=	6.25
Cc1noc(C)c1-c1cc(S(=O)(=O)NCC2CC(F)(F)C2)c2cccnc2c1	<	4.70
Cc1noc(C)c1-c1cc(S(=O)(=O)N[C@H]2C[C@@H](NC(=O)OC(C)(C)C)C2)c2cccnc2c1	<	4.70
